Target: O-acetylserine sulfhydrylase (Mycobacterium tuberculosis)
Recorded metric: pKi
Entry type: numeric. Quantity: pKi, the -log10 of concentration in molar units.

For the compound "CC[C@H](C)[C@H](NC(=O)[C@H](CO)NC(=O)[C@H](Cc1ccccc1)NC(=O)[C@@H](N)CC(=O)O)C(=O)O" , report pKi.
5.30

* * *

Assay: Cytotoxicity against HEK293T cells assessed as growth inhibition at 25 uM by MTT assay relative to control
Format: cell-based, HEK-293T
Conditions: human, read-out: GI
Assign inhibition at 25 µM to each entry below.
Just the number please, in %, no unit attached.

Give me measured inhibition at 25 µM, please, for this molecule: O=C1N=C2C(C(=O)N=C3SC([N+](=O)[O-])=CN32)C(c2cccc(Br)c2)N1 (centres undefined)
0

Note inhibition at 25 µM for the molecule shown: COc1ccc(C2NC(=O)N=C3C2C(=O)N=C2SC([N+](=O)[O-])=CN23)cc1 (centres undefined)
0

Assign inhibition at 25 µM to the following record: O=C1N=C2SC([N+](=O)[O-])=CN2C2=NC(=S)NC(c3ccccc3O)C12 (centres undefined)
0.1

Please report the measured inhibition at 25 µM for Cc1ccccc1C1NC(=O)N=C2C1C(=O)N=C1SC([N+](=O)[O-])=CN12 (centres undefined)
6

State its inhibition at 25 µM: O=C1N=C2C(C(=O)N=C3SC([N+](=O)[O-])=CN32)C(c2ccccc2)N1 (centres undefined)
1.6

Look up and state reported inhibition at 25 µM for Cc1ccc(C2NC(=S)N=C3C2C(=O)N=C2SC([N+](=O)[O-])=CN23)cc1 (centres undefined)
0

For the molecule COc1cc(C2NC(=S)N=C3C2C(=O)N=C2SC([N+](=O)[O-])=CN23)ccc1O (centres undefined) , give its reported inhibition at 25 µM.
0

Item O=C1N=C2SC([N+](=O)[O-])=CN2C2=NC(=S)NC(c3c(Cl)cccc3Cl)C12 (centres undefined) : provide inhibition at 25 µM
21.3

Return the recorded inhibition at 25 µM value; entry: O=C1N=C2C(C(=O)N=C3SC([N+](=O)[O-])=CN32)C(c2ccccc2[N+](=O)[O-])N1 (centres undefined)
0

Please list inhibition at 25 µM recorded for the molecule O=C1N=C2SC([N+](=O)[O-])=CN2C2=NC(=S)NC(c3ccccc3[N+](=O)[O-])C12 (centres undefined)
1

Retrieve inhibition at 25 µM measured for O=C1N=C2C(C(=O)N=C3SC([N+](=O)[O-])=CN32)C(c2ccc(F)cc2)N1 (centres undefined) and print it.
5.4

Look up and report measured inhibition at 25 µM for this entry: O=C1N=C2SC([N+](=O)[O-])=CN2C2=NC(=S)NC(c3ccc(F)cc3)C12 (centres undefined)
30.6

Answer with the recorded inhibition at 25 µM of O=C1N=C2SC([N+](=O)[O-])=CN2C2=NC(=S)NC(c3ccccc3)C12 (centres undefined) only.
0

Report inhibition at 25 µM for O=C1N=C2C(C(=O)N=C3SC([N+](=O)[O-])=CN32)C(c2ccc(Cl)cc2)N1 (centres undefined)
0

Hello, please tell me recorded inhibition at 25 µM for this one: O=C1N=C2SC([N+](=O)[O-])=CN2C2=NC(=S)NC(c3ccc(Br)cc3)C12 (centres undefined)
2.5

Entry O=C1N=C2C(C(=O)N=C3SC([N+](=O)[O-])=CN32)C(c2ccc([N+](=O)[O-])cc2)N1 (centres undefined) needs its inhibition at 25 µM filled in; supply it.
2.6

Return reported inhibition at 25 µM. Input molecule: O=C1N=C2SC([N+](=O)[O-])=CN2C2=NC(=S)NC(c3cccc(Br)c3)C12 (centres undefined)
6

Respond only with inhibition at 25 µM recorded for Cc1ccc(C2NC(=O)N=C3C2C(=O)N=C2SC([N+](=O)[O-])=CN23)cc1 (centres undefined)
0

Using the record for O=C1N=C2C(C(=O)N=C3SC([N+](=O)[O-])=CN32)C(c2ccc(Br)cc2)N1 (centres undefined) , state its measured inhibition at 25 µM.
6.1

* * *

Kindly state inhibition at 25 µM for each of the entries shown.
Test: Cytotoxicity against HEK293T cells assessed as growth inhibition at 25 uM by MTT assay relative to control
Assay type: cell-based, HEK-293T
Details: human, read-out: GI
Report only the number, with the unit % understood.

Identify measured inhibition at 25 µM associated with O=C1N=C2SC([N+](=O)[O-])=CN2C2=NC(=S)NC(c3ccc(Cl)cc3)C12 (stereo unspecified)
7.4

Give me measured inhibition at 25 µM, please, for this compound: CN(C)c1ccc(C2NC(=S)N=C3C2C(=O)N=C2SC([N+](=O)[O-])=CN23)cc1 (stereo unspecified)
8

Read the entry COc1cc(C2NC(=O)N=C3C2C(=O)N=C2SC([N+](=O)[O-])=CN23)ccc1O (stereo unspecified) and write its reported inhibition at 25 µM.
0

Return value of inhibition at 25 µM for input O=C1N=C2C(C(=O)N=C3SC([N+](=O)[O-])=CN32)C(c2ccccc2O)N1 (stereo unspecified) , no commentary.
0

Consider the compound O=C1N=C2SC([N+](=O)[O-])=CN2C2=NC(=S)NC(c3ccc([N+](=O)[O-])cc3)C12 (stereo unspecified) and give its recorded inhibition at 25 µM.
1.64

State its inhibition at 25 µM for this compound: O=C1N=C2C(C(=O)N=C3SC([N+](=O)[O-])=CN32)C(c2c(Cl)cccc2Cl)N1 (stereo unspecified)
0

Read the entry Cc1ccccc1C1NC(=S)N=C2C1C(=O)N=C1SC([N+](=O)[O-])=CN12 (stereo unspecified) and write its reported inhibition at 25 µM.
3.6

Assign inhibition at 25 µM to the following record: O=C1N=C2SC([N+](=O)[O-])=CN2C2=NC(=S)NC(c3ccccc3C(F)(F)F)C12 (stereo unspecified)
27.7

Retrieve inhibition at 25 µM measured for CN(C)c1ccc(C2NC(=O)N=C3C2C(=O)N=C2SC([N+](=O)[O-])=CN23)cc1 (stereo unspecified) and print it.
0

For O=C1N=C2C(C(=O)N=C3SC([N+](=O)[O-])=CN32)C(c2ccccc2C(F)(F)F)N1 (stereo unspecified) , write its inhibition at 25 µM.
5.7

Tell me inhibition at 25 µM reported for COc1ccc(C2NC(=S)N=C3C2C(=O)N=C2SC([N+](=O)[O-])=CN23)cc1 (stereo unspecified)
0.2

* * *

Biological target: O-acetylserine sulfhydrylase (Mycobacterium tuberculosis)
Record form. Attribute: pIC50. Fill in for each entry.
Please report pIC50 as the negative decimal logarithm of the molar concentration, giving only the number.

Note pIC50 for the compound shown: O=C1N=C2SC([N+](=O)[O-])=CN2C2=NC(=S)NC(c3ccccc3[N+](=O)[O-])C12 (stereo not given)
4.52

Note pIC50 for the compound shown: "CC[C@H](C)[C@H](NC(=O)[C@H](CO)NC(=O)[C@H](Cc1ccccc1)NC(=O)[C@@H](N)CC(=O)O)C(=O)O"
5.13

Determine from records and report pIC50 for Cc1ccccc1C1NC(=S)N=C2C1C(=O)N=C1SC([N+](=O)[O-])=CN12 (stereo not given)
4.75

Name the recorded pIC50 of the compound listed here: COc1ccc(C2NC(=S)N=C3C2C(=O)N=C2SC([N+](=O)[O-])=CN23)cc1 (stereo not given)
4.64

State its pIC50: O=C1N=C2C(C(=O)N=C3SC([N+](=O)[O-])=CN32)C(c2ccccc2C(F)(F)F)N1 (stereo not given)
4.75

* * *

Would you mind telling me the reported inhibition of each entry?
Molecular target: UniProt P9WP55
Experiment: Inhibition of Mycobacterium tuberculosis CysK1 using O-acetyl-L-serine as substrate assessed as L-cycteine formation at 100 uM after 5 mins by spectrophotometric analysis relative to control
All answers are understood in %, so give the number only.

Provide measured inhibition value, entry: O=C1N=C2SC([N+](=O)[O-])=CN2C2=NC(=S)NC(c3ccc(Cl)cc3)C12 (stereo unspecified)
102

Respond only with inhibition recorded for Cc1ccc(C2NC(=S)N=C3C2C(=O)N=C2SC([N+](=O)[O-])=CN23)cc1 (stereo unspecified)
106

Give a short answer stating reported inhibition for O=C1N=C2C(C(=O)N=C3SC([N+](=O)[O-])=CN32)C(c2ccc([N+](=O)[O-])cc2)N1 (stereo unspecified) .
54.7

Please report the measured inhibition for O=C1N=C2C(C(=O)N=C3SC([N+](=O)[O-])=CN32)C(c2ccccc2)N1 (stereo unspecified)
84.1

Note inhibition for the compound shown: O=C1N=C2C(C(=O)N=C3SC([N+](=O)[O-])=CN32)C(c2ccc(Br)cc2)N1 (stereo unspecified)
89.1

For O=C1N=C2SC([N+](=O)[O-])=CN2C2=NC(=S)NC(c3ccccc3)C12 (stereo unspecified) , write its inhibition.
90.4

State its inhibition: O=C1N=C2C(C(=O)N=C3SC([N+](=O)[O-])=CN32)C(c2ccc(F)cc2)N1 (stereo unspecified)
100

Indicate the recorded inhibition value for this compound: O=C1N=C2SC([N+](=O)[O-])=CN2C2=NC(=S)NC(c3ccc(F)cc3)C12 (stereo unspecified)
60

Tell us which inhibition value is on record for O=C1N=C2SC([N+](=O)[O-])=CN2C2=NC(=S)NC(c3ccc(Br)cc3)C12 (stereo unspecified)
65.6

Look up and report measured inhibition for this entry: O=C1N=C2C(C(=O)N=C3SC([N+](=O)[O-])=CN32)C(c2c(Cl)cccc2Cl)N1 (stereo unspecified)
57.8

Read off the recorded inhibition for O=C1N=C2SC([N+](=O)[O-])=CN2C2=NC(=S)NC(c3cccc(Br)c3)C12 (stereo unspecified)
39.9

Give a short answer stating reported inhibition for COc1cc(C2NC(=S)N=C3C2C(=O)N=C2SC([N+](=O)[O-])=CN23)ccc1O (stereo unspecified) .
89.2

// fetch inhibition given entry O=C1N=C2C(C(=O)N=C3SC([N+](=O)[O-])=CN32)C(c2ccccc2O)N1 (stereo unspecified)
107

Query inhibition for Cc1ccccc1C1NC(=O)N=C2C1C(=O)N=C1SC([N+](=O)[O-])=CN12 (stereo unspecified)
103

Give a short answer stating reported inhibition for Cc1ccc(C2NC(=O)N=C3C2C(=O)N=C2SC([N+](=O)[O-])=CN23)cc1 (stereo unspecified) .
57.7

Give the value of inhibition reported for the following: O=C1N=C2C(C(=O)N=C3SC([N+](=O)[O-])=CN32)C(c2ccccc2C(F)(F)F)N1 (stereo unspecified)
13.8

For the compound O=C1N=C2SC([N+](=O)[O-])=CN2C2=NC(=S)NC(c3c(Cl)cccc3Cl)C12 (stereo unspecified) , give its measured inhibition value.
113

Consider the compound CN(C)c1ccc(C2NC(=O)N=C3C2C(=O)N=C2SC([N+](=O)[O-])=CN23)cc1 (stereo unspecified) and give its recorded inhibition.
92.7

Supply reported inhibition belonging to this compound: O=C1N=C2SC([N+](=O)[O-])=CN2C2=NC(=S)NC(c3ccccc3C(F)(F)F)C12 (stereo unspecified)
89.4

Quick one: give measured inhibition for O=C1N=C2C(C(=O)N=C3SC([N+](=O)[O-])=CN32)C(c2cccc(Br)c2)N1 (stereo unspecified)
60.1

Identify the reported inhibition for the following entry. O=C1N=C2SC([N+](=O)[O-])=CN2C2=NC(=S)NC(c3ccccc3[N+](=O)[O-])C12 (stereo unspecified)
11.3
